- protocol_notes: Cytotoxicity in mock-infected MT4 CMV-EGFP cells (GFP fluorescence)
- Format: cell-based
- study_conditions: human, 50% cytotoxic concentration as negative log
- Description: Analogously, MT4 cells are engineered with GFP and the constitutional cytomegalovirus (CMV) promotor. This cell line is designated MT4 CMV-EGFP, and can be used for the in vitro evaluation of cytotoxicity of investigational compounds. In this cell line, GFP levels are comparably to those of infected MT4 LTR-EGFP cells. Cytotoxic investigational compounds reduce GFP levels of mock-infected MT4 CMV-EGFP cells. […]
test_readout: CC50 at 3 days

O=c1c2cc(Br)ccc2c2nc3ccccn3c2n1-c1ccc([N+](=O)[O-])cc1 :: > 100 µM
O=c1c2ccccc2c2nc3ccc(OCCO)cn3c2n1-c1ccc([N+](=O)[O-])cc1 :: > 32.4 µM

So, O=C(Nc1ccc2nc3c4ccccc4c(=O)n(-c4ccc([N+](=O)[O-])cc4)c3n2c1)C(F)(F)F ? Its CC50 at 3 days was > 32.4 µM

Input O=C(Nc1ccc2nc3c4ccccc4c(=O)n(-c4ccc(Cl)nc4)c3n2c1)C(F)(F)F . Output CC50 at 3 days: > 32.4 µM
